# settings: in DMSO, 298.15 K
measured_attribute: solubility (mole fraction)
Answers are plain numbers.

Ask | Request the reported solubility (mole fraction) associated with `[NH3+]O.[NH3+]O.[O-]n1nnnc1-c1nnnn1[O-]`
Reply | 0.00131

---

# settings: in toluene, 308.15 K
measured_attribute: solubility (mole fraction)

Ask | What measured solubility (mole fraction) goes with `[NH3+]O.[NH3+]O.[O-]n1nnnc1-c1nnnn1[O-]` ?
Reply | 2.6e-05

---

# settings: in DMSO, 313.15 K
measured_attribute: solubility (mole fraction)
Numbers only.

Ask | Any idea what its solubility (mole fraction) is? The compound is `[NH3+]O.[NH3+]O.[O-]n1nnnc1-c1nnnn1[O-]`
Reply | 0.00179
